Numbers sourced from PubChem BioAssay (NCI).

# Test system: DU-145 prostate
# method-description: NCI tumour cell line growth inhibition, 48 h
Below is a list of entries, each paired with its recorded TGI value.

Example molecules with recorded TGI:
Lookup: I'd like to know its TGI. The molecule in question is COc1ccc(C(=O)/C=C/c2ccc(OCCCCCCCCCCOc3ccc(/C=C/C(=O)c4ccc(OC)c(OC)c4)cc3)cc2)c(OC)c1
Found: > 100 µM

Lookup: I'd like to know its TGI. The molecule in question is Cc1cc(C(=O)Nc2cc(Nc3ncccc3-c3ncnc4nc[nH]c34)ccc2F)cc(C(C)(C)C#N)c1
Found: > 100 µM

Lookup: I'd like to know its TGI. The molecule in question is C=C1C[C@@H]2CC[C@@]34CC5O[C@H]6C(O[C@H]7CC[C@H](CC(=O)O[C@@H]8[C@@H](C)[C@@H]9O[C@@H]%10C[C@]%11(C[C@@H]%12O[C@]%13(C[C@H](C)[C@@H]%14O[C@@H]%15CC(C(COC(C)=O)OC(C)=O)O[C@@H]%15C[C@@H]%14O%13)C[C@H](C)[C@@H]%12O%11)O[C@@H]%10C[C@@H]9O[C@H]8CC8O[C@@H](CC[C@@H]1O2)C[C@@H](C)C8(O)CO)O[C@@H]7[C@@H]6O3)[C@H]5O4 (stereo partly drawn)
Found: > 1 µM

Lookup: I'd like to know its TGI. The molecule in question is CC(Br)CN(CC(C)Br)c1ccc2c(c1)Cc1ccccc1-2 (stereo not drawn)
Found: 23 µM

Lookup: I'd like to know its TGI. The molecule in question is CO[C@H](C)[C@](O)(C(=O)OCC1=CCN2CC[C@@H](O)[C@H]12)C(C)C
Found: > 100 µM

Others:
Lookup: I'd like to know its TGI. The molecule in question is CN1C2CCC1C(CO)C(=O)C2 (stereo not drawn)
Found: > 100 µM

Lookup: I'd like to know its TGI. The molecule in question is Cn1c2ccccc2c2c3c(=O)[nH][nH]c(=O)c3c3c4ccccc4n(C)c3c21
Found: > 100 µM

Lookup: I'd like to know its TGI. The molecule in question is Cc1cccc2c(N)c3cccc(C(=O)NCC[N+](C)(C)[O-])c3nc12
Found: > 100 µM

* * *

# Test system: MDA-MB-231 breast
# method-description: NCI tumour cell line growth inhibition, 48 h
observable: TGI (µM)
Answer with a number only, understood to be in µM.

Example compounds with recorded TGI:
Lookup: I'd like to know its TGI. The compound in question is C=C1C(=O)C23CC1CCC2C12CO[C@@]3(O)[C@@H](O)C1C(C)(C)C=CC2=O (stereo not given in full)
Found: 12

Lookup: I'd like to know its TGI. The compound in question is COc1ccc2nc3cc(Cl)ccc3c(Nc3ccc(O)c(CN4CCCC4)c3)c2c1
Found: 3.84

Lookup: I'd like to know its TGI. The compound in question is C[C@@H](CCO)OC1OC(COC(=O)C(C)(C)C)C(OC(=O)C(C)(C)C)C(OC(=O)C(C)(C)C)C1OC(=O)C(C)(C)C (stereo not given in full)
Found: 25.9

Attention now shifts to the item below.
Lookup: I'd like to know its TGI. The compound in question is CC1OC2OC3C(OCC(O)C3O)OC(=O)[C@]34CCC(C)(C)CC3C3=CCC5[C@@]6(C)C[C@H](O)[C@H](OC7OC(CO)C(O)C(O)C7OC7OC(COC(=O)CC(C)(O)CC(=O)OC1C(OC1OC(CO)C(O)C(O)C1O)C2O)C(O)C(O)C7O)[C@@](C)(CO)C6CC[C@@]5(C)[C@]3(C)CC4 (stereo not given in full)
Found: 16.4
